- System: human EGFR mRNA
- Experimental details: Down-regulation of EGFR mRNA in transfected 15PC3 cells, real-time PCR
- Format: cell-based
- Test context: 25 nM
- Protocol: 15PC3: The human prostate cancer cell line 15PC3 was cultured in DMEM (Sigma)+10% fetal bovine serum (FBS)+2 mM Glutamax I+gentamicin (25 μg/ml). […] The sample content of human HER3, EGFR and HER2 mRNA was quantified using the human HER3, EGFR and HER2 ABI Prism Pre-Developed TaqMan Assay Reagents (Applied Biosystems cat. no. Hs00951444_ml (HER3), Hs00193306_ml (EGFR) and Hs00170433_ml (HER2) according to the manufacturer's instructions. […]
In the oligonucleotide strings, read from the 5' end, every base follows the letter of its sugar. An asterisk marks phosphorothioate; unmarked linkages are phosphodiester. Other units and linkages are bracketed, terminal groups are in braces. A string of capitals states the bases alone. l = locked nucleic acid (LNA); [5mC] = 5-methylcytosine; d = 2'-deoxy (DNA)
Recorded measurements of EGFR: percentage down-regulation of mRNA relative to mock transfected cells, one per entry
Please state the figure in %; there is no need to write the unit.

// solved cases for EGFR: percentage down-regulation of mRNA relative to mock transfected cells follow
Substance	Unit symbol	Readout value
ASTSCScSaSaScSaScStStSgSaSCSCSA (antisense lA*lT*l[5mC]*dC*dA*dA*dC*dA*dC*dT*dT*dG*dA*l[5mC]*l[5mC]*lA) [SEQ ID NO: 176, β-D-oxy-LNA/DNA phosphorothioate gapmer antisense oligonucleotide targeting HER3]	%	79.4
TSCSAScSaScScSaStSaSgScStSCSCSA (antisense lT*l[5mC]*lA*dC*dA*dC*dC*dA*dT*dA*dG*dC*dT*l[5mC]*l[5mC]*lA) [SEQ ID NO: 174, β-D-oxy-LNA/DNA phosphorothioate gapmer antisense oligonucleotide targeting HER3]	%	86.4

Next up:
Please list EGFR: percentage down-regulation of mRNA relative to mock transfected cells recorded for the substance ASGSAScSaStScSaScStScStSgSGSTSG (antisense lA*lG*lA*dC*dA*dT*dC*dA*dC*dT*dC*dT*dG*lG*lT*lG) [SEQ ID NO: 172, β-D-oxy-LNA/DNA phosphorothioate gapmer antisense oligonucleotide targeting HER3]
86.2

----------
- Tested on: human HER2 mRNA
- Experimental details: Down-regulation of HER2 mRNA in transfected 15PC3 cells, real-time PCR
- Format: cell-based
- Test context: 25 nM
In the oligonucleotide strings, read from the 5' end, every base follows the letter of its sugar. An asterisk marks phosphorothioate; unmarked linkages are phosphodiester. Other units and linkages are bracketed, terminal groups are in braces. A string of capitals states the bases alone. l = locked nucleic acid (LNA); [5mC] = 5-methylcytosine; d = 2'-deoxy (DNA)
Quantity kind: HER2: percentage down-regulation of mRNA relative to mock transfected cells (%)
Please state the figure in %; there is no need to write the unit.

// solved cases for HER2: percentage down-regulation of mRNA relative to mock transfected cells follow
Substance	Readout value
CSTSCScSaSgSaScSaStScSaScSTSCST (antisense l[5mC]*lT*l[5mC]*dC*dA*dG*dA*dC*dA*dT*dC*dA*dC*lT*l[5mC]*lT) [SEQ ID NO: 170, β-D-oxy-LNA/DNA phosphorothioate gapmer antisense oligonucleotide targeting HER3]	65.8
GSCSTScScSaSgSaScSaStScSaSCSTSC (antisense lG*l[5mC]*lT*dC*dC*dA*dG*dA*dC*dA*dT*dC*dA*l[5mC]*lT*l[5mC]) [SEQ ID NO: 169, β-D-oxy-LNA/DNA phosphorothioate gapmer antisense oligonucleotide targeting HER3]	75.8

Please list HER2: percentage down-regulation of mRNA relative to mock transfected cells recorded for the substance TSCSASaStScSaStScScSaSaScSASCST (antisense lT*l[5mC]*lA*dA*dT*dC*dA*dT*dC*dC*dA*dA*dC*lA*l[5mC]*lT) [SEQ ID NO: 178, β-D-oxy-LNA/DNA phosphorothioate gapmer antisense oligonucleotide targeting HER3]
88.6

Please list HER2: percentage down-regulation of mRNA relative to mock transfected cells recorded for the substance CSASAStScSaStScScSaSaScSaSCSTST (antisense l[5mC]*lA*lA*dT*dC*dA*dT*dC*dC*dA*dA*dC*dA*l[5mC]*lT*lT) [SEQ ID NO: 177, β-D-oxy-LNA/DNA phosphorothioate gapmer antisense oligonucleotide targeting HER3]
63.4

----------
- Tested on: human HER3 mRNA
- Experimental details: Down-regulation of HER3 mRNA in transfected 15PC3 cells, real-time PCR
- Assay type: cell-based
- Test context: 25 nM
In the oligonucleotide strings, read from the 5' end, every base follows the letter of its sugar. An asterisk marks phosphorothioate; unmarked linkages are phosphodiester. Other units and linkages are bracketed, terminal groups are in braces. A string of capitals states the bases alone. l = locked nucleic acid (LNA); [5mC] = 5-methylcytosine; d = 2'-deoxy (DNA)
Recorded measurements of HER3: percentage down-regulation of mRNA relative to mock transfected cells, one per entry
Please state the figure in %; there is no need to write the unit.

// solved cases for HER3: percentage down-regulation of mRNA relative to mock transfected cells follow
Substance	Target under test	Readout value
CSASGSaScSaStScSaScStScStSGSGST (antisense l[5mC]*lA*lG*dA*dC*dA*dT*dC*dA*dC*dT*dC*dT*lG*lG*lT) [SEQ ID NO: 171, β-D-oxy-LNA/DNA phosphorothioate gapmer antisense oligonucleotide targeting HER3]	human HER3 mRNA	70.6
CSASAStScSaStScScSaSaScSaSCSTST (antisense l[5mC]*lA*lA*dT*dC*dA*dT*dC*dC*dA*dA*dC*dA*l[5mC]*lT*lT) [SEQ ID NO: 177, β-D-oxy-LNA/DNA phosphorothioate gapmer antisense oligonucleotide targeting HER3]	human HER3 mRNA	51.1

Next up:
Recall the reported HER3: percentage down-regulation of mRNA relative to mock transfected cells of CSASTStScSaSaSgStStScStStSCSAST (antisense l[5mC]*lA*lT*dT*dC*dA*dA*dG*dT*dT*dC*dT*dT*l[5mC]*lA*lT) [SEQ ID NO: 184, β-D-oxy-LNA/DNA phosphorothioate gapmer antisense oligonucleotide targeting HER3] when tested on human HER3 mRNA.
81.1

----------
- System: human HER3 mRNA
- Experimental details: Down-regulation of HER3 mRNA in transfected 15PC3 cells, real-time PCR
- Format: cell-based
- Test context: 25 nM
In the oligonucleotide strings, read from the 5' end, every base follows the letter of its sugar. An asterisk marks phosphorothioate; unmarked linkages are phosphodiester. Other units and linkages are bracketed, terminal groups are in braces. A string of capitals states the bases alone. l = locked nucleic acid (LNA); [5mC] = 5-methylcytosine; d = 2'-deoxy (DNA)
Quantity kind: HER3: percentage down-regulation of mRNA relative to mock transfected cells (%)
Please state the figure in %; there is no need to write the unit.

// solved cases for HER3: percentage down-regulation of mRNA relative to mock transfected cells follow
Substance	Unit symbol	Readout value
CSASASgSgScStScSaScSaScSaSTSCST (antisense l[5mC]*lA*lA*dG*dG*dC*dT*dC*dA*dC*dA*dC*dA*lT*l[5mC]*lT) [SEQ ID NO: 182, β-D-oxy-LNA/DNA phosphorothioate gapmer antisense oligonucleotide targeting HER3]	%	74.6
TSCSASaStScSaStScScSaSaScSASCST (antisense lT*l[5mC]*lA*dA*dT*dC*dA*dT*dC*dC*dA*dA*dC*lA*l[5mC]*lT) [SEQ ID NO: 178, β-D-oxy-LNA/DNA phosphorothioate gapmer antisense oligonucleotide targeting HER3]	%	76.7
CSASTSaScStScScStScSaStScSTSTSC (antisense l[5mC]*lA*lT*dA*dC*dT*dC*dC*dT*dC*dA*dT*dC*lT*lT*l[5mC]) [SEQ ID NO: 193, β-D-oxy-LNA/DNA phosphorothioate gapmer antisense oligonucleotide targeting HER3]	%	64
GSCSCScSaSgScSaScStSaSaStSTSTSC (antisense lG*l[5mC]*l[5mC]*dC*dA*dG*dC*dA*dC*dT*dA*dA*dT*lT*lT*l[5mC]) [SEQ ID NO: 186, β-D-oxy-LNA/DNA phosphorothioate gapmer antisense oligonucleotide targeting HER3]	%	79.9
CSASTScScSaSaScSaScStStSgSASCSC (antisense l[5mC]*lA*lT*dC*dC*dA*dA*dC*dA*dC*dT*dT*dG*lA*l[5mC]*l[5mC]) [SEQ ID NO: 175, β-D-oxy-LNA/DNA phosphorothioate gapmer antisense oligonucleotide targeting HER3]	%	65.5
ASTSCScSaSaScSaScStStSgSaSCSCSA (antisense lA*lT*l[5mC]*dC*dA*dA*dC*dA*dC*dT*dT*dG*dA*l[5mC]*l[5mC]*lA) [SEQ ID NO: 176, β-D-oxy-LNA/DNA phosphorothioate gapmer antisense oligonucleotide targeting HER3]	%	61.6

Please list HER3: percentage down-regulation of mRNA relative to mock transfected cells recorded for the substance ASGSAScSaStScSaScStScStSgSGSTSG (antisense lA*lG*lA*dC*dA*dT*dC*dA*dC*dT*dC*dT*dG*lG*lT*lG) [SEQ ID NO: 172, β-D-oxy-LNA/DNA phosphorothioate gapmer antisense oligonucleotide targeting HER3]
84.2

Please list HER3: percentage down-regulation of mRNA relative to mock transfected cells recorded for the substance CSASTSgStSaSgSaScSaStScSaSASTST (l[5mC]*lA*lT*dG*dT*dA*dG*dA*dC*dA*dT*dC*dA*lA*lT*lT; antisense) [SEQ ID NO: 179]
70.5
